target: rat nNOS (Rattus norvegicus, UniProt P29476); construct: made in house; host or cells: E. coli (plasmid pCWnNOS); assay: NOS enzyme inhibitory assay (hemoglobin capture), nNOS; assay type: biochemical; conditions: Table 1a; apparent Ki calculated from IC50, Km […]; read-out: calc. Ki nNOS
Reported metric: Ki (µM)
Use µM as the unit, but write only the number.

These solved cases illustrate the format of a correct answer.
Which measured Ki value corresponds to Nc1cccc(CC2CNCC2NCC(N)Cc2ccccc2)n1 (racemic) [Compound P-17] ?
20.6

Which measured Ki value corresponds to Nc1cccc(CC2CNCC2NC2CCN(Cc3ccccc3)C2)n1 (centres unmarked) [Compound P-39] ?
22.6

Which measured Ki value corresponds to Nc1cccc(CC2CNCC2NC2CCN(Cc3ccccc3)C2)n1 (centres unmarked) [Compound P-36] ?
3.34

Which measured Ki value corresponds to Nc1cccc(CC2CNCC2NC2CCN(Cc3ccccc3)C2)n1 (centres unmarked) [Compound P-37] ?
75.2

Which measured Ki value corresponds to Cc1cc(N)nc(C[C@H]2CNC[C@@H]2NCCN)c1.Cl.Cl.Cl.Cl (racemic) [Compound P-47] ?
0.61

Which measured Ki value corresponds to Cl.Cl.Cl.Nc1cccc(C[C@H]2CN(Cc3ccccc3)C[C@@H]2NCCCO)n1 (racemic) [Compound P-3] ?
190

More entries:
Which measured Ki value corresponds to Nc1cccc(C[C@H]2CNC[C@H]2NCCNCc2ccccc2)n1 (racemic) [Compound P-33] ?
1.18

Which measured Ki value corresponds to Nc1cccc(CC2CNCC2NC2CCN(Cc3ccccc3)C2)n1 (racemic) [Compound P-21] ?
24.4

Which measured Ki value corresponds to Nc1cccc(C[C@H]2CNC[C@@H]2NCCNCc2ccccc2)n1 (racemic) [Compound P-18] ?
14.5

Which measured Ki value corresponds to CN(C)CCNC1CNCC1Cc1cccc(N)n1 (racemic) [Compound P-30] ?
3.33

Which measured Ki value corresponds to Cl.Cl.Cl.Nc1cccc(C[C@H]2CNC[C@H]2NCCCc2ccccc2)n1 (racemic) [Compound P-27] ?
3.17
